tested on: ATP; assay: switch fluorescence ratio, 500 uM ATP over buffer (Cy3 cluster intensity, sum of 5 cycles each) (fold (ratio)); higher = stronger signal-on switching upon ATP binding; sequences stand for … in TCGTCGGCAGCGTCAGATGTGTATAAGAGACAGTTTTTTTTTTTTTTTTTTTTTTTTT…TC; conditions: aptamer strand: ATP DNA aptamer (quencher-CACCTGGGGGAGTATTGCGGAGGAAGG + anchor), 100 nM annealed; ATP concentration: 500 uM;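 also: ATP exposure 15 min at 22 °C before imaging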
For each of the sequences below, state its switch fluorescence ratio.
The answer should be written as a number, with no unit following it.

Query: Given "AAGTATGCTT" , state its recorded switch fluorescence ratio.
Response: 1.01

Query: Return reported switch fluorescence ratio; argument: "GCCGGCGTCG"
Response: 1.03

Query: Fill blank: measured switch fluorescence ratio of the sequence "GCTTCTCTTA" is ____.
Response: 0.974

Query: Fill blank: measured switch fluorescence ratio of the sequence "TAGGGGTGGC" is ____.
Response: 0.956

The reported numbers originate from the supplement of paper PMC10126150.
